From: ChEMBL document CHEMBL1133315

MEASUREMENT_NOTES: The compound was tested for half life in dog
Type: ADME, organism-based, Canis lupus familiaris
DETAILS: in vivo
RECORDED_METRIC: half-life (h)

> print(dat)
                              smiles.string  measurement.unit  result
1  O=S(=O)(Nc1ccc(CCNC[C@H](O)c2cccnc2)cc1)c1ccc(-n2ncc(Cc3ccc(C(F)(F)F)cc3)n2)cc1                 h       6

----------
MEASURED_TARGET: Beta-2 adrenergic receptor (Homo sapiens, UniProt P07550)
Sequence (P07550 whole entry): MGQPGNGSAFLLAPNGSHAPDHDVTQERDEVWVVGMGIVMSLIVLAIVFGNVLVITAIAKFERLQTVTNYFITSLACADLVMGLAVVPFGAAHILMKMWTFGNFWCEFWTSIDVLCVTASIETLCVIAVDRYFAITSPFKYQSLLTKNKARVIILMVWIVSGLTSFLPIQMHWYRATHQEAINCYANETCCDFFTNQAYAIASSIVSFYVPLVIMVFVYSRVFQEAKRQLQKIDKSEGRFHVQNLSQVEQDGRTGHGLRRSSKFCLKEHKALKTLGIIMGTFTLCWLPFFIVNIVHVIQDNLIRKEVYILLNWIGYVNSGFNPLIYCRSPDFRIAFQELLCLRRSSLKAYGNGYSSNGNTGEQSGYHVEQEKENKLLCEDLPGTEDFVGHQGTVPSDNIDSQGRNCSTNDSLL
MEASUREMENT_NOTES: Binding affinity for clone human Beta-2 adrenergic receptor from CHO cell membranes in the presence of I-iodocyanopindolol
Each record is given rule met if its reported IC50 is strictly below 5 µM. Records at or above 5 µM are given rule not met.

> print(dat)
                              smiles.string    class.name
1  O=S(=O)(Nc1ccc(CCNC[C@H](O)c2cccnc2)cc1)c1ccc(-n2ncc(COc3ccc(F)c(F)c3)n2)cc1      rule met
2  O=S(=O)(Nc1ccc(CCNC[C@H](O)c2cccnc2)cc1)c1ccc(-n2ncc(Cc3ccc(F)c(F)c3)n2)cc1      rule met
3  O=S(=O)(Nc1ccc(CCNC[C@H](O)c2cccnc2)cc1)c1ccc(-n2ncc(Cc3ccc(OC(F)(F)F)cc3)n2)cc1      rule met
4  O=S(=O)(Nc1ccc(CCNC[C@H](O)c2cccnc2)cc1)c1ccc(-n2ncc(-c3ccc(C(F)(F)F)cc3)n2)cc1  rule not met
5  O=S(=O)(Nc1ccc(CCNC[C@H](O)c2cccnc2)cc1)c1ccc(-n2ncc(Cc3ccc(C(F)(F)F)cc3)n2)cc1      rule met
6  O=S(=O)(Nc1ccc(CCNC[C@H](O)c2cccnc2)cc1)c1ccc(-n2ncc(Cc3cccc(F)c3)n2)cc1      rule met
7  O=S(=O)(Nc1ccc(CCNC[C@H](O)c2cccnc2)cc1)c1ccc(-n2ncc(-c3ccc(OC(F)(F)F)cc3)n2)cc1      rule met
8  O=S(=O)(Nc1ccc(CCNC[C@H](O)c2cccnc2)cc1)c1ccc(-n2ncc(-c3ccc(F)cc3)n2)cc1  rule not met

----------
MEASUREMENT_NOTES: Oral bioavailability in dog
Assay type: ADME, organism-based, Canis lupus familiaris
DETAILS: in vivo
RECORDED_METRIC: bioavailability (%)

> print(dat)
                                   compound  recorded.metric  op  result
1  CCCCCCNC(=O)Nc1ccc(S(=O)(=O)Nc2ccc(CCNC[C@H](O)c3cccnc3)cc2)cc1  bioavailability   <       1
2  CCCCCCn1ccn(-c2ccc(S(=O)(=O)Nc3ccc(CCNC[C@H](O)c4cccnc4)cc3)cc2)c1=O [L-764646]  bioavailability   =       7
3  O=S(=O)(Nc1ccc(CCNC[C@H](O)c2cccnc2)cc1)c1ccc(-n2ncc(-c3ccc(C(F)(F)F)cc3)n2)cc1  bioavailability   =      18

----------
MEASURED_TARGET: UniProtKB P13945
Sequence (P13945 whole entry): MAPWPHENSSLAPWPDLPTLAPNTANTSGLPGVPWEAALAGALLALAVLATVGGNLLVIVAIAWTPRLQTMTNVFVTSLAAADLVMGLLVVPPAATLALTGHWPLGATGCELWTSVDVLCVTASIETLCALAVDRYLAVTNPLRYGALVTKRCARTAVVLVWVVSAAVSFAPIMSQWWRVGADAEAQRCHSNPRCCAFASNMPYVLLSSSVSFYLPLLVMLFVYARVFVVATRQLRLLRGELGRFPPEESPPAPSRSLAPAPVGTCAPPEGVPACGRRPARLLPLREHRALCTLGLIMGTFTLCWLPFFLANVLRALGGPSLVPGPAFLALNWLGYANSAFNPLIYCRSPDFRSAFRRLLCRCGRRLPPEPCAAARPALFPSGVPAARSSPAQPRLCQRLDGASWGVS
MEASUREMENT_NOTES: Tested in vitro for its ability to stimulate increase in cAMP in CHO cells expressing the cloned human beta-3 adrenergic receptor
RECORDED_METRIC: EC50

> print(dat)
                              smiles.string  recorded.metric  result
1  O=S(=O)(Nc1ccc(CCNC[C@H](O)c2cccnc2)cc1)c1ccc(-n2ncc(COc3ccc(C(F)(F)F)cc3)n2)cc1             EC50   11 nM
2  O=S(=O)(Nc1ccc(CCNC[C@H](O)c2cccnc2)cc1)c1ccc(-n2ncc(Cc3ccc(F)cc3)n2)cc1             EC50   14 nM
3  O=S(=O)(Nc1ccc(CCNC[C@H](O)c2cccnc2)cc1)c1ccc(-n2ncc(Cc3cccc(F)c3)n2)cc1             EC50  6.4 nM
4  O=S(=O)(Nc1ccc(CCNC[C@H](O)c2cccnc2)cc1)c1ccc(-n2ncc(Cc3ccc(F)c(F)c3)n2)cc1             EC50  7.2 nM
